tested.system: JAK2 kinase (Homo sapiens, UniProt O60674)
Sequence (O60674 whole entry): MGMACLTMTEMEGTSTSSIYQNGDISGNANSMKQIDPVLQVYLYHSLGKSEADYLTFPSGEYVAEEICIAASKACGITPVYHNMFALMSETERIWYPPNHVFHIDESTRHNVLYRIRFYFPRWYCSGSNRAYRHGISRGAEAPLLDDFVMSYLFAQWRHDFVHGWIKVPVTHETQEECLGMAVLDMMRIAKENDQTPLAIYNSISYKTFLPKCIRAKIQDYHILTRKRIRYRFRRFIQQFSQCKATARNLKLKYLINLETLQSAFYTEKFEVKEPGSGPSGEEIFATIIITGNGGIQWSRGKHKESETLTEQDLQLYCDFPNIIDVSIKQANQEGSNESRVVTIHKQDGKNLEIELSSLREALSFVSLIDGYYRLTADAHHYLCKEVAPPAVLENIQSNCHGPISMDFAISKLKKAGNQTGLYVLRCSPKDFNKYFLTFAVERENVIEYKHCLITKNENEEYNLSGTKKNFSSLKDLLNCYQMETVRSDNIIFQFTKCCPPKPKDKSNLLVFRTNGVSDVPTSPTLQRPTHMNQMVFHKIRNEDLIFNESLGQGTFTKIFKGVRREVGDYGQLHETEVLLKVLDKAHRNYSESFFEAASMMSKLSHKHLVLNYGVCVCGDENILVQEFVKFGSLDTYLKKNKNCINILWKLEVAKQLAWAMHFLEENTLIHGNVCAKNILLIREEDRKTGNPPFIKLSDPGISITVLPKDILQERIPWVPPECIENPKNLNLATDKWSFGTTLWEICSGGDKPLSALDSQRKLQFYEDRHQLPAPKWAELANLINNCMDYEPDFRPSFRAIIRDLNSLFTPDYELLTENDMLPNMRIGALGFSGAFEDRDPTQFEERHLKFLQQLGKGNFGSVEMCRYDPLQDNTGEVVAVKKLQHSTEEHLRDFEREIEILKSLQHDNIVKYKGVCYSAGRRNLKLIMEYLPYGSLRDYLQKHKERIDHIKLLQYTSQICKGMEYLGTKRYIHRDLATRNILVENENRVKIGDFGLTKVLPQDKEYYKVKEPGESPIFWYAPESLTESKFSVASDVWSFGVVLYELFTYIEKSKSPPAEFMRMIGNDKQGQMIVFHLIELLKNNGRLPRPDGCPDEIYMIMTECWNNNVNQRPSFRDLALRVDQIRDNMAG
pIC50: −log10 of the molar value.
pIC50 values, listed per item

Example results:
{"compound": "COC12CC3CC(C1)C(Nc1nc(Nc4ccc5c(c4)NC[C@H](O)CO5)ncc1C(N)=O)C(C3)C2 (stereo partly shown)", "tested.system": "JAK2 kinase (Homo sapiens, UniProt O60674)", "pIC50": "> 8.00"}
{"compound": "C#CCNc1nc(Nc2ccc3c(c2)NC[C@H](O)CO3)ncc1C(N)=O", "tested.system": "JAK2 kinase (Homo sapiens, UniProt O60674)", "pIC50": "7.00 to 8.00"}
{"compound": "NC(=O)c1cnc(Nc2ccc3c(c2)NC[C@H](O)CO3)nc1NC1CC1F (stereo partly shown)", "tested.system": "JAK2 kinase (Homo sapiens, UniProt O60674)", "pIC50": "7.00 to 8.00"}
{"compound": "CC1(Nc2nc(Nc3ccc4c(c3)NC[C@H](O)CO4)ncc2C(N)=O)CC1", "tested.system": "JAK2 kinase (Homo sapiens, UniProt O60674)", "pIC50": "> 8.00"}
{"compound": "C=CCNc1nc(Nc2ccc3c(c2)NC[C@H](O)CO3)ncc1C(N)=O", "tested.system": "JAK2 kinase (Homo sapiens, UniProt O60674)", "pIC50": "7.00 to 8.00"}

Entry CCCO[C@H]1CNc2cc(Nc3ncc(C(N)=O)c(NC4CC4)n3)ccc2OC1 ; assay system JAK2 kinase (Homo sapiens, UniProt O60674); pIC50 recorded at 7.00 to 8.00

Entry NC(=O)c1cnc(Nc2ccc3c(c2)NC[C@H](O)CO3)nc1NCC1CCCC1 ; assay system JAK2 kinase (Homo sapiens, UniProt O60674); pIC50 recorded at > 8.00

Entry NC(=O)c1cnc(Nc2ccc3c(c2)NC[C@H](OCCO)CO3)nc1NC1CC1 ; assay system JAK2 kinase (Homo sapiens, UniProt O60674); pIC50 recorded at > 8.00

Entry NC(=O)c1cnc(Nc2ccc3c(c2)NCC(O)CO3)nc1NCC(F)(F)F (stereo not shown) ; assay system JAK2 kinase (Homo sapiens, UniProt O60674); pIC50 recorded at 7.00 to 8.00
